- System tested: T1, htau40 (Homo sapiens, UniProt P10636)
- T1 construct: Full length tau (hT40)
- T1 sequence (P10636 1-441 isoform P10636-8): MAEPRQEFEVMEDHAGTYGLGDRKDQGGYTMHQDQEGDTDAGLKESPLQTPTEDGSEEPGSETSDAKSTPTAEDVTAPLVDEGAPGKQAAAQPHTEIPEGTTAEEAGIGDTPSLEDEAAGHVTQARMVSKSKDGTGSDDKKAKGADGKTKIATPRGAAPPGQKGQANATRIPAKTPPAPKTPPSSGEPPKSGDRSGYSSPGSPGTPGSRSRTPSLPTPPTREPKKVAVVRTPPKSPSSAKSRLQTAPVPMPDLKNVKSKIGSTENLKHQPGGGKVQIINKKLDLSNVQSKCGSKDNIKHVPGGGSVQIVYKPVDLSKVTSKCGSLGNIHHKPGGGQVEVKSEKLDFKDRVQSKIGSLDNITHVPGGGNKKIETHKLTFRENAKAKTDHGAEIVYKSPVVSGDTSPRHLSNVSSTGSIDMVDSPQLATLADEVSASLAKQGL
- Protocol summary: Biacore X100 SPR kinetics of anti-tau mAbs on immobilised htau40
- Assay type: binding
- Assay context: second Table 25; newly converted mAbs, hT40
- Description: For anti-tau mAb SPR measurements, htau40 was conjugated to the surface of a CM5 sensor chip using amine coupling as explained previously. […] Binding responses were analysed in Biacore X100 evaluation software and data fitted to a 1:1 binding model to obtain kinetic and affinity characterisation. […]
The following molecules are shown together with reported kd values.
Report the value in s⁻¹ with no unit label.

>>> obs_value("3aH6: N-terminal anti-tau clone, Table 6; SEQ ID NO: 423 (protein, 3aH6 amino acid sequence) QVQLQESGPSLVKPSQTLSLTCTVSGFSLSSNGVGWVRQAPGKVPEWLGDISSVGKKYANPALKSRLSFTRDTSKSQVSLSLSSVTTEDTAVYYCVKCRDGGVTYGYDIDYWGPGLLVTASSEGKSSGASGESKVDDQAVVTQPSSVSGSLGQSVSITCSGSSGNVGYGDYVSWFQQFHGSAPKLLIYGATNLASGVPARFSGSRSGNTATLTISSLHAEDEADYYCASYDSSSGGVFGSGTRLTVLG")
0.0001522
>>> obs_value("3aG3: N-terminal anti-tau clone, Table 6; SEQ ID NO: 424 (protein, 3aG3 amino acid sequence) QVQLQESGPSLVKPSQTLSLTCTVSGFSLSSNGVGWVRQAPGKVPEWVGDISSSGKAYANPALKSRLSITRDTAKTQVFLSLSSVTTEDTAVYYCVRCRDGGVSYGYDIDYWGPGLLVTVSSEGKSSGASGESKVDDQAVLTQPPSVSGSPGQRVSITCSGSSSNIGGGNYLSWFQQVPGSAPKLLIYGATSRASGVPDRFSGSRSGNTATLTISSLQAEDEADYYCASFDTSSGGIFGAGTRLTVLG")
0.004751
>>> obs_value("MD9: anti-tau clone, Table 10; SEQ ID NO: 373 (protein, MD9 amino acid sequence) scFv: QVRLQESGPSLVKSSQTLSLTCTVSGFSLTRESIAWVRQAPGKVPEWLGGVGIDGTSYYSPALKSRLSITRDTSKSQASLSLSSVATEDTAMYYCARNYIDFEYWGPGLLVTVSSEGKSSGASGESKVDDQAVLTQLSSVSGSLGQRISITCSGSSSNVGIYDVSWFQQLPGSGLRTVIYGTNNRPSGVPDRFSGSRSGNTATLTISSLQSEDEAIYYCAAGDSSTIAVFGSGTRLTVLG")
0.001462
>>> obs_value("3bG4: N-terminal anti-tau clone, Table 6; SEQ ID NO: 425 (protein, 3bG4 amino acid sequence) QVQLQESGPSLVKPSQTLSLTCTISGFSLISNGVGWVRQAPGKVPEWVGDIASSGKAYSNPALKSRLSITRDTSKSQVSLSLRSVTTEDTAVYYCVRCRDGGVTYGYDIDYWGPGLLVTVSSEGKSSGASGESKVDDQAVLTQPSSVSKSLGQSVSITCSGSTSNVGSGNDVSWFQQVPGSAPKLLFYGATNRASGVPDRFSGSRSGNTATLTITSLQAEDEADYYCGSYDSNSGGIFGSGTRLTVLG")
0.0002964

We now examine a further molecule.
# lookup: kd of 3bD11: anti-tau clone, Table 10; SEQ ID NO: 637 (protein) scFv: RVRLQGSGPSLVKPSQTLSLTCTVSGFSFDSYYVGWVRQAPGKALEWLGNIYSTGRAFYNPALKSRLSITRDTSKSQVSLSVSSVTIEDTALYYCVRGSYYHGGGNGMVDFFDYWSPGLLVTVSSEGKSSGASGESKVDDQVVRTQPSSVSGSLGQRVSITCSGSSSNVGYGNYVGWFQQVPGSAPKLLIYAATSRASGVPDRFSGSRSGNTATLTIDSLQAEDEADYYCSSYQRGNTGVFGSGTRLTVLG
0.003979
